For each of the compounds below, state its Biodistribution: Lung.
assay_comment: Organ distribution in normal ICR mice after iv injection of radiolabeled tracer
Type: in vivo
condition_set: [125I]-labeled tracer, 2 min
Give a bare numeral; the unit % dose/g is implied.

Notebook: CNc1ccc(/C=C/c2cnc(OCCO)c(I)c2)cc1 [[^125I]16b] , Biodistribution: Lung read as 7.43

Notebook: CN(C)c1ccc(/C=C/c2cnc(OCCOCCOCCF)c(I)c2)cc1 [[^125I]13a] , Biodistribution: Lung read as 10.08

Notebook: CNc1ccc(/C=C/c2cnc(OCCOCCOCCF)c(I)c2)cc1 [[^125I]13b] , Biodistribution: Lung read as 6.85

Notebook: CN(C)c1ccc(/C=C/c2cnc(OCCO)c(I)c2)cc1 [[^125I]16a] , Biodistribution: Lung read as 9.41

###

assay_comment: Organ distribution in normal ICR mice after iv injection of radiolabeled tracer
Type: in vivo
condition_set: [125I]-labeled tracer, 2 min
metric_name: Biodistribution: Spleen (% dose/g)
Give a bare numeral; the unit % dose/g is implied.

Notebook: CN(C)c1ccc(/C=C/c2cnc(OCCO)c(I)c2)cc1 [[^125I]16a] , Biodistribution: Spleen read as 4.40

Notebook: CN(C)c1ccc(/C=C/c2cnc(OCCOCCOCCF)c(I)c2)cc1 [[^125I]13a] , Biodistribution: Spleen read as 4.47

Notebook: CNc1ccc(/C=C/c2cnc(OCCO)c(I)c2)cc1 [[^125I]16b] , Biodistribution: Spleen read as 4.08

Notebook: CNc1ccc(/C=C/c2cnc(OCCOCCOCCF)c(I)c2)cc1 [[^125I]13b] , Biodistribution: Spleen read as 4.41

###

assay_comment: Organ distribution in normal ICR mice after iv injection of radiolabeled tracer
Format: in vivo
condition_set: [125I]-labeled tracer, 1 hr
metric_name: Biodistribution: Blood
Answer format reminder: number followed by unit.

Notebook: CN(C)c1ccc(/C=C/c2cnc(OCCO)c(I)c2)cc1 [[^125I]16a] , Biodistribution: Blood read as 2.18 ± 0.66 % dose/g

Notebook: CNc1ccc(/C=C/c2cnc(OCCO)c(I)c2)cc1 [[^125I]16b] , Biodistribution: Blood read as 1.81 ± 0.56 % dose/g

Notebook: CNc1ccc(/C=C/c2cnc(OCCOCCOCCF)c(I)c2)cc1 [[^125I]13b] , Biodistribution: Blood read as 2.88 ± 0.28 % dose/g

Notebook: CN(C)c1ccc(/C=C/c2cnc(OCCOCCOCCF)c(I)c2)cc1 [[^125I]13a] , Biodistribution: Blood read as 1.65 ± 0.45 % dose/g

###

assay_comment: Organ distribution in normal ICR mice after iv injection of radiolabeled tracer
Type: in vivo
condition_set: [125I]-labeled tracer, 2 min
metric_name: Biodistribution: Thyroid (% dose/g)
Give a bare numeral; the unit % dose/g is implied.

Notebook: CN(C)c1ccc(/C=C/c2cnc(OCCOCCOCCF)c(I)c2)cc1 [[^125I]13a] , Biodistribution: Thyroid read as 3.89

Notebook: CNc1ccc(/C=C/c2cnc(OCCOCCOCCF)c(I)c2)cc1 [[^125I]13b] , Biodistribution: Thyroid read as 5.74

Notebook: CNc1ccc(/C=C/c2cnc(OCCO)c(I)c2)cc1 [[^125I]16b] , Biodistribution: Thyroid read as 6.31

Notebook: CN(C)c1ccc(/C=C/c2cnc(OCCO)c(I)c2)cc1 [[^125I]16a] , Biodistribution: Thyroid read as 4.15
